Hey, just so you know, these numbers are from patent US20230094463A1.

- systemTested: T1, Human Galectin-3 protein (Acro Biosystems, GA3-H5129) (human, UniProt P17931 2-250)
- T1 construct: Bought protein; also called Gal3-ECD-His; Gal3-His; not shown: linker-spaced 6-histidine tag
- T1 sequence (P17931 2-250): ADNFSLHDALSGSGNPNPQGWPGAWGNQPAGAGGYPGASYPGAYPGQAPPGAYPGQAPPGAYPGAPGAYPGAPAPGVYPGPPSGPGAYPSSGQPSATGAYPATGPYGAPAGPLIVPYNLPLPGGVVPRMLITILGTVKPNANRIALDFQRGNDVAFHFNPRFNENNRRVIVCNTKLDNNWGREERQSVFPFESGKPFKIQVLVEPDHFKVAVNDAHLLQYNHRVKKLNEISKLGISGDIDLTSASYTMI
- assayProtocol: SPR (Biacore T200), antibody captured, Galectin-3 as analyte
Task for the reader: assign each of the following binders its reported Kd.
# output: bare number, implied unit nM

Which Kd reading was recorded for the binder 23H9.2E4 (antibody, V domains shown) VH: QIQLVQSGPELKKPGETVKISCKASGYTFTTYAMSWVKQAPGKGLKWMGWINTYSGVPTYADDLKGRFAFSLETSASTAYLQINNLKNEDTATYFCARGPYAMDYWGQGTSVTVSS VL: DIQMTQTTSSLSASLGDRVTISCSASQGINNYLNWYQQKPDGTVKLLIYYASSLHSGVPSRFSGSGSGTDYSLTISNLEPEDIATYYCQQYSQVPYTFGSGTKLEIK ?
4.26

// same read-out, input: 4A11.2B5 (antibody, V domains shown) VH: QVQLQQSGPELVKPGASVKISCKASGYSFTNYYIHWVKQRPGQGLEWIGWIYPGSGNTNYNEKFKGKATLTADTSSSTTNMQLSSLTSEDSAVYYCSTAPGGFDVWGSGTTVTVSS VL: DIVMTQAAFSNPVTLGTSASISCRSSKSLLHSDGITYLYWYLQRPGQSPQLLIYRMSNLASGVPDRFSGSGSGTDFTLRISRVEAEDVGVYYCAQMLEFPLTFGAGTKLELK
5.22
